System: human T cells
Assay: Inhibition of 5-HT-dependent T Cell Proliferation
Assay type: cell-based
Settings: Homo sapiens, T-cell, monocyte-free human T cells stimulated with PWM and 5-HT; 3H-thymidine incorporation; 7 days
VALUE_KIND: IC50 (nM)
Record the value in nM, omitting the unit from your answer.

See these solved cases before continuing.
CCOc1ccccc1N1CCN(CCCN2CC3C4c5ccccc5C(c5ccccc54)C3C2)CC1 (stereo not drawn)
5000
c1ccc(N2CCN(CCCN3CC4C5c6ccccc6C(c6ccccc65)C4C3)CC2)cc1 (stereo not drawn)
5000
C=CC12c3ccccc3C(c3ccccc31)C1CN(CCCN3CCN(c4ccc(F)cc4)CC3)CC12 (stereo not drawn)
2000
Cc1cccc(N2CCN(CCCN3CC4C5c6ccccc6C(c6ccccc65)C4C3)CC2)c1 (stereo not drawn)
1000
Fc1ccc(N2CCN(CCCCN3CC4C5c6ccccc6C(c6ccccc65)C4C3)CC2)cc1 (stereo not drawn)
600

Lab note: next compound to report on.
Fill in the blank: the reported IC50 of CCc1ccccc1N1CCN(CCCN2CC3C4c5ccccc5C(c5ccccc54)C3C2)CC1 (stereo not drawn) is ____.
3000

* * *

Measured IC50 of individual entries
Tested on: human T cells
Test: Inhibition of 5-HT-dependent T Cell Proliferation
Type: cell-based
Conditions: Homo sapiens, T-cell, monocyte-free human T cells stimulated with PWM and 5-HT; 3H-thymidine incorporation; 7 days
Procedure: The in vitro activity of the compounds according to the invention results from their capability to inhibit T cell proliferation, which is previously stimulated by serotonin. Inhibition of 5-HT-dependent T Cell Proliferation […] The test substances are dissolved in 10 mM HCl in order to achieve a final concentration of 1 mM in each case. […] The inhibitory activity of the test substances is expressed as the IC50 in μM. […]
Record the value in µM, omitting the unit from your answer.

See these solved cases before continuing.
c1ccc(N2CCN(CCN3CC4C5c6ccccc6C(c6ccccc65)C4C3)CC2)cc1 (stereo not shown)
5
COc1ccccc1N1CCN(CCCCN2CC3C4c5ccccc5C(c5ccccc54)C3C2)CC1 (stereo not shown)
5
FC(F)(F)c1cccc(N2CCN(CCCN3CC4C5c6ccccc6C(c6ccccc65)C4C3)CC2)c1 (stereo not shown)
5

Fill in the blank: the reported IC50 of Clc1ccc(N2CCN(CCCCN3CC4C5c6ccccc6C(c6ccccc65)C4C3)CC2)cc1 (stereo not shown) is ____.
2

Fill in the blank: the reported IC50 of Cc1ccc(N2CCN(CCCN3CC4C5c6ccccc6C(c6ccccc65)C4C3)CC2)cc1 (stereo not shown) is ____.
2

Fill in the blank: the reported IC50 of NCC12c3ccccc3C(c3ccccc31)C1CN(CCCN3CCN(c4ccc(F)cc4)CC3)CC12 (stereo not shown) is ____.
1

* * *

Tested on: human T cells
Test: Inhibition of 5-HT-dependent T Cell Proliferation
Format: cell-based
Conditions: Homo sapiens, T-cell, monocyte-free human T cells stimulated with PWM and 5-HT; 3H-thymidine incorporation; 7 days
VALUE_KIND: log10 IC50 (log10 of the value in µM)
Scale type: logarithmic (base 10). Underlying IC50 unit: µM.

See these solved cases before continuing.
COc1ccc(N2CCN(CCCN3CC4C5c6ccccc6C(c6ccccc65)C4C3)CC2)cc1OC (stereo not shown)
1.00
FC(F)(F)c1ccc(N2CCN(CCCN3CC4C5c6ccccc6C(c6ccccc65)C4C3)CC2)cc1 (stereo not shown)
0.30
CC12c3ccccc3C(c3ccccc31)C1CN(CCCN3CCN(c4ccc(Cl)cc4)CC3)CC12 (stereo not shown)
0.70
c1ccc(N2CCN(CCCCCCN3CC4C5c6ccccc6C(c6ccccc65)C4C3)CC2)cc1 (stereo not shown)
0.00
Cc1ccc(N2CCN(CCCN3CC4C5c6ccccc6C(c6ccccc65)C4C3)CC2)c(C)c1 (stereo not shown)
0.70

Fill in the blank: the reported log10 IC50 of Cc1ccc(N2CCN(CCCN3CC4C5c6ccccc6C(c6ccccc65)C4C3)CC2)cc1C (stereo not shown) is ____.
0.30
